# TESTED SYSTEM: WNK2 (human)
# ASSAY NAME: radiometric filter-binding kinase assay, Kinase HotSpot
# RECORDED CONDITIONS: compound 0.5 µM; ATP 10 µM
REPORTED PROPERTY: residual activity (%)
Field: numeric (%). Do not append units.

>  <SMILES STRING>
CNC(=O)c1cc(Oc2ccc(NC(=O)Nc3ccc(Cl)c(C(F)(F)F)c3)cc2)ccn1

>  <residual activity (%)>
101

$$$$

Please report the measured residual activity for COc1cc2ncnc(Nc3cccc(Cl)c3)c2cc1OC
98.6

Please report the measured residual activity for Cc1ccc(S(=O)(=O)/C=C/C#N)cc1
124

Please report the measured residual activity for Cc1ccc(NC2=CC(=O)c3sc(C)nc3C2=O)cc1
97.7

Please report the measured residual activity for CCOC(=O)c1c(C)[nH]c(/C=C2\C(=O)Nc3ccccc32)c1C
100

Please report the measured residual activity for CCN(CC)CCNC(=O)c1c(C)[nH]c(/C=C2\C(=O)Nc3ccc(Cl)cc32)c1C
101

Please report the measured residual activity for CCN(CC)CCNC(=O)c1c(C)[nH]c(/C=C2\C(=O)Nc3ccc(F)cc32)c1C
100

Please report the measured residual activity for O=C(Nc1cccc(Nc2nccc(Nc3cccc(C(F)(F)F)c3)n2)c1)C1CC1
122

Please report the measured residual activity for CNc1cc2c(Nc3cccc(Br)c3)ncnc2cn1
114

Please report the measured residual activity for O=C1NC(=O)C(c2cn(CCCn3ccnc3)c3ccccc23)=C1Nc1ccccc1
99.8
